- Tested on: Hepatitis C virus
- Protocol Notes: Antiviral activity against Hepatitis C virus infected in human HuH7 cells assessed as viral RNA replication
- Type: functional, organism-based, Hepacivirus hominis
- Particulars: Huh-7
Recorded Endpoint: EC50 (µM)
All answers are understood in µM, so give the number only.

Summary for this molecule, CCCC(NC(=O)C1N(C(=O)[C@@H](NC(=O)NC2CCCCC2)C(C)(C)C)CC12Cc1ccccc1C2)C(=O)C(=O)NC1CC1 (stereo partly specified) : EC50 is 8.9

Summary for this molecule, CC(C)(C)[C@H](NC(=O)[C@@H](NC(=O)c1cnccn1)C1CCCCC1)C(=O)N1CC2(Cc3ccccc3C2)C1C(=O)NC(CC1CC1)C(=O)C(=O)NC1CC1 (stereo partly specified) : EC50 is 0.8

Summary for this molecule, "CCC[C@H](NC(=O)[C@@H]1[C@H]2CCC[C@H]2CN1C(=O)[C@@H](NC(=O)[C@@H](NC(=O)c1cnccn1)C1CCCCC1)C(C)(C)C)C(=O)C(=O)NC1CC1" : EC50 is 0.4

----------
- Test system: PBMC
- Protocol Notes: Cytotoxicity against human PBMC
- Assay type: cell-based
Recorded Endpoint: CC50 (µM)
All answers are understood in µM, so give the number only.

Summary for this molecule, CC(C)(C)[C@H](NC(=O)[C@@H](NC(=O)c1cnccn1)C1CCCCC1)C(=O)N1CC2(Cc3ccccc3C2)C1C(=O)NC(CC1CC1)C(=O)C(=O)NC1CC1 (stereo partly specified) : CC50 is 12

Summary for this molecule, CCCC(NC(=O)C1N(C(=O)[C@@H](NC(=O)Nc2ccc(OC)cc2)C(C)(C)C)CC12Cc1ccccc1C2)C(=O)C(=O)NC1CC1 (stereo partly specified) : CC50 is 22

Summary for this molecule, CC(C)(C)[C@H](NC(=O)[C@@H](NC(=O)c1cnccn1)C1CCCCC1)C(=O)N1CC2(Cc3ccccc3C2)C1C(=O)NC(CC1CCC1)C(=O)C(=O)NC1CC1 (stereo partly specified) : CC50 is 29

Summary for this molecule, CCCC(NC(=O)C1N(C(=O)[C@@H](NC(=O)NC2CCCCC2)C(C)(C)C)CC12Cc1ccccc1C2)C(=O)C(=O)NC1CC1 (stereo partly specified) : CC50 is 30

Summary for this molecule, CC(C)(C)[C@H](NC(=O)NC1CCCCC1)C(=O)N1CC2(Cc3ccccc3C2)C1C(=O)NC(CC1CCC1)C(=O)C(=O)NC1CC1 (stereo partly specified) : CC50 is 15

Summary for this molecule, CCCC(NC(=O)C1CCN1C(=O)[C@@H](NC(=O)[C@@H](NC(=O)c1cnccn1)C1CCCCC1)C(C)(C)C)C(=O)C(=O)NCCF (stereo partly specified) : CC50 is 80

Summary for this molecule, CCCC(NC(=O)C1N(C(=O)[C@@H](NC(=O)[C@@H](NC(=O)c2cnccn2)C2CCCCC2)C(C)(C)C)CC12CCCCC2)C(=O)C(=O)NC1CC1 (stereo partly specified) : CC50 is 32

----------
Reported values: IC50 for Plasminogen (Homo sapiens), one per item.

Summary for this compound, CC(C)(C)NC(=O)N[C@H](C(=O)N1C[C@H]2[C@@H]([C@H]1C(=O)NC(CC1CCC1)C(=O)C(N)=O)C2(C)C)C(C)(C)C (some centres undefined) [BOCEPREVIR] : IC50 is > 100 µM

Summary for this compound, "CC[C@@H]1C[C@]1(NC(=O)[C@@H]1C[C@@H]2CN1C(=O)[C@H](C(C)(C)C)NC(=O)OCC(C)(C)CCCCc1cccc3c1CN(C3)C(=O)O2)C(=O)NS(=O)(=O)C1CC1" : IC50 is > 100 µM

Summary for this compound, "CCC[C@H](NC(=O)[C@@H]1[C@H]2CCC[C@H]2CN1C(=O)[C@@H](NC(=O)[C@@H](NC(=O)c1cnccn1)C1CCCCC1)C(C)(C)C)C(=O)C(=O)NC1CC1" : IC50 is 8.7 µM

Summary for this compound, CCCC(NC(=O)C1N(C(=O)[C@@H](NC(=O)[C@@H](NC(=O)c2cnccn2)C2CCCCC2)C(C)(C)C)CC12CCCCC2)C(=O)C(=O)NC1CC1 (some centres undefined) : IC50 is > 100 µM

----------
What IC50 was measured for each of the following?

Tested on Prothrombin (Homo sapiens, UniProt P00734): CC(C)(C)NC(=O)N[C@H](C(=O)N1C[C@H]2[C@@H]([C@H]1C(=O)NC(CC1CCC1)C(=O)C(N)=O)C2(C)C)C(C)(C)C (some centres undefined) . Observed IC50: < 1000 nM

Tested on Prothrombin (Homo sapiens, UniProt P00734): "CCC[C@H](NC(=O)[C@@H]1[C@H]2CCC[C@H]2CN1C(=O)[C@@H](NC(=O)[C@@H](NC(=O)c1cnccn1)C1CCCCC1)C(C)(C)C)C(=O)C(=O)NC1CC1" . Observed IC50: < 1000 nM

Tested on Prothrombin (Homo sapiens, UniProt P00734): CCCC(NC(=O)C1N(C(=O)[C@@H](NC(=O)[C@@H](NC(=O)c2cnccn2)C2CCCCC2)C(C)(C)C)CC12CCCCC2)C(=O)C(=O)NC1CC1 (some centres undefined) . Observed IC50: < 1000 nM

Tested on Prothrombin (Homo sapiens, UniProt P00734): "CC[C@@H]1C[C@]1(NC(=O)[C@@H]1C[C@@H]2CN1C(=O)[C@H](C(C)(C)C)NC(=O)OCC(C)(C)CCCCc1cccc3c1CN(C3)C(=O)O2)C(=O)NS(=O)(=O)C1CC1" . Observed IC50: > 100000 nM

----------
What EC50 was measured for each of the following?
- System: Hepatitis C virus
- Protocol Notes: Antiviral activity against Hepatitis C virus infected in human HuH7 cells assessed as viral RNA replication
- Assay type: functional, organism-based, Hepacivirus hominis
- Particulars: Huh-7

Tested on Hepatitis C virus: CCCC(NC(=O)C1N(C(=O)[C@@H](NC(=O)Nc2ccccc2)C(C)(C)C)CC12Cc1ccccc1C2)C(=O)C(=O)NC1CC1 (stereo partly specified) . Observed EC50: > 10 µM

Tested on Hepatitis C virus: CC(C)(C)[C@H](NC(=O)[C@@H](NC(=O)c1cnccn1)C1CCCCC1)C(=O)N1CC2(Cc3ccccc3C2)C1C(=O)NC(CC1CCC1)C(=O)C(=O)NC1CC1 (stereo partly specified) . Observed EC50: 0.7 µM

Tested on Hepatitis C virus: CCCC(NC(=O)C1CCN1C(=O)[C@@H](NC(=O)[C@@H](NC(=O)c1cnccn1)C1CCCCC1)C(C)(C)C)C(=O)C(=O)NC1CC1 (stereo partly specified) . Observed EC50: > 10 µM

Tested on Hepatitis C virus: CCCC(NC(=O)C1N(C(=O)[C@@H](NC(=O)[C@@H](NC(=O)c2cnccn2)C2CCCCC2)C(C)(C)C)CC12CCCCC2)C(=O)C(=O)NC1CC1 (stereo partly specified) . Observed EC50: 2.3 µM

Tested on Hepatitis C virus: CCCC(NC(=O)C1N(C(=O)[C@@H](NC(=O)NC(C)(C)C)C(C)(C)C)CC12Cc1ccccc1C2)C(=O)C(=O)NC1CC1 (stereo partly specified) . Observed EC50: 13 µM

Tested on Hepatitis C virus: CC(C)(C)[C@H](NC(=O)NC1CCCCC1)C(=O)N1CC2(Cc3ccccc3C2)C1C(=O)NC(CC1CCC1)C(=O)C(=O)NC1CC1 (stereo partly specified) . Observed EC50: 5.8 µM

----------
- System: CCRF-CEM
- Protocol Notes: Cytotoxicity against human CEM cells
- Assay type: cell-based
Returns: string. Value is 1 (yes) if measured CC50 is below 30 µM, and 0 (no) if it is greater than or equal to it.

In the record for CCCC(NC(=O)C1CCN1C(=O)[C@@H](NC(=O)[C@@H](NC(=O)c1cnccn1)C1CCCCC1)C(C)(C)C)C(=O)C(=O)NCCF (stereo partly drawn) , is CC50 less than 30 µM?
0 (no)

In the record for CCCC(NC(=O)C1N(C(=O)[C@@H](NC(=O)[C@@H](NC(=O)c2cnccn2)C2CCCCC2)C(C)(C)C)CC12CCCCC2)C(=O)C(=O)NC1CC1 (stereo partly drawn) , is CC50 less than 30 µM?
1 (yes)

In the record for CC(C)(C)NC(=O)N[C@H](C(=O)N1C[C@H]2[C@@H]([C@H]1C(=O)NC(CC1CCC1)C(=O)C(N)=O)C2(C)C)C(C)(C)C (stereo partly drawn) , is CC50 less than 30 µM?
0 (no)

In the record for CCCC(NC(=O)C1CCN1C(=O)[C@@H](NC(=O)[C@@H](NC(=O)c1cnccn1)C1CCCCC1)C(C)(C)C)C(=O)C(=O)NCCOC (stereo partly drawn) , is CC50 less than 30 µM?
0 (no)

In the record for CCCC(NC(=O)C1CCN1C(=O)[C@@H](NC(=O)[C@@H](NC(=O)c1cnccn1)C1CCCCC1)C(C)(C)C)C(=O)C(=O)NC1CC1 (stereo partly drawn) , is CC50 less than 30 µM?
0 (no)

In the record for CCCC(NC(=O)C1N(C(=O)[C@@H](NC(=O)[C@@H](NC(=O)c2cnccn2)C2CCCCC2)C(C)(C)C)CC12Cc1ccccc1C2)C(=O)C(=O)NC1CC1 (stereo partly drawn) , is CC50 less than 30 µM?
0 (no)

In the record for CC(C)(C)[C@H](NC(=O)[C@@H](NC(=O)c1cnccn1)C1CCCCC1)C(=O)N1CC2(Cc3ccccc3C2)C1C(=O)NC(CC1CC1)C(=O)C(=O)NC1CC1 (stereo partly drawn) , is CC50 less than 30 µM?
1 (yes)

In the record for CCCC(NC(=O)C1N(C(=O)[C@@H](NC(=O)CC(C)(C)C)C(C)(C)C)CC12Cc1ccccc1C2)C(=O)C(=O)NC1CC1 (stereo partly drawn) , is CC50 less than 30 µM?
0 (no)

In the record for CCCC(NC(=O)C1N(C(=O)[C@@H](NC(=O)C2CCCCC2)C(C)(C)C)CC12Cc1ccccc1C2)C(=O)C(=O)NC1CC1 (stereo partly drawn) , is CC50 less than 30 µM?
1 (yes)

In the record for CC(C)(C)[C@H](NC(=O)[C@@H](NC(=O)c1cnccn1)C1CCCCC1)C(=O)N1CC2(Cc3ccccc3C2)C1C(=O)NC(CC1CCC1)C(=O)C(=O)NC1CC1 (stereo partly drawn) , is CC50 less than 30 µM?
0 (no)

In the record for CCCC(NC(=O)C1N(C(=O)[C@@H](NC(=O)[C@@H](NC(=O)c2cnccn2)C2CCCCC2)C(C)(C)C)CC12CCCCC2)C(=O)C(=O)NCCF (stereo partly drawn) , is CC50 less than 30 µM?
1 (yes)

In the record for CC(C)(C)[C@H](NC(=O)NC1CCCCC1)C(=O)N1CC2(Cc3ccccc3C2)C1C(=O)NC(CC1CCC1)C(=O)C(=O)NC1CC1 (stereo partly drawn) , is CC50 less than 30 µM?
1 (yes)
